Origin of the recorded values: ChEMBL document CHEMBL2218064

target: UniProt:Q99572
Sequence (Q99572 whole entry): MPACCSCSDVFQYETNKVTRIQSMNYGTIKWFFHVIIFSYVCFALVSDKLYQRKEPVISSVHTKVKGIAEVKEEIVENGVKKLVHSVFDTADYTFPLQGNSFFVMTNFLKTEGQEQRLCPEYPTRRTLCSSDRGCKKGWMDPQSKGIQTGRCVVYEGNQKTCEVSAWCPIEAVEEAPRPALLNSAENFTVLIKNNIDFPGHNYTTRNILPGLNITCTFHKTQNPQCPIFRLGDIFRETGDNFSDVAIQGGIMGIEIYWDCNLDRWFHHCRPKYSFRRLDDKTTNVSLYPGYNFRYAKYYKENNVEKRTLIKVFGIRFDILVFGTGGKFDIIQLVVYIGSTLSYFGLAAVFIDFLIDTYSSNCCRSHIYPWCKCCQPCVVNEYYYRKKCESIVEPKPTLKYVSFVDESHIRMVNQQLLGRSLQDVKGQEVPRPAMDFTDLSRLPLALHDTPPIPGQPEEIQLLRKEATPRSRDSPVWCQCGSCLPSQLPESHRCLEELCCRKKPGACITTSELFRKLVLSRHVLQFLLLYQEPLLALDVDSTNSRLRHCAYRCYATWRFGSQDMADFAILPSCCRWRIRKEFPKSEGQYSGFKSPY
pIC50: −log10 of the molar value.
The threshold is inclusive: pIC50 of exactly 7 counts as T; values below receive F.

Task item: Is pIC50 at least 7? Consider Cc1ccccc1CN1CCN(c2cccc(Cl)c2Cl)C(=O)C1=O
Reply: F

---

Listed next: entries and their corresponding log10(IC50).
molecular target: UniProtKB Q99572
Quick note: numbers are log10 of IC50, with nM as the unit.

Below, 2 compounds whose answers are already recorded.
Compound | log10(IC50)
Cc1nn(-c2ccc(F)cc2F)c(C)c1CC(=O)NCc1ccc(F)cc1Cl | 1.70
CN1C(=O)NC[C@H]1C(=O)NCc1c(F)cc(Cl)cc1Cl | 1.20

Task item: # lookup: log10(IC50) of O=C(c1ccc(Cl)cc1Cl)N1CCn2c(Br)nnc2C1
Reply: 2.30

Task item: Suppose we examine the compound CN1C[C@@H](C(=O)NCc2cccc(C(F)(F)F)c2Cl)NC1=O ; what log10(IC50) value has been reported?
Reply: 1.80

Task item: log10(IC50) for CN1C(=O)N(CCN2CCOCC2)CC1C(=O)NCc1ccc(F)cc1Cl (stereo not drawn) ?
Reply: 2.40

Task item: What does the record list as log10(IC50) for Cc1nn(C2CCOCC2)c(C)c1CC(=O)NCc1ccc(F)cc1Cl ?
Reply: 3.10

Task item: Field request: log10(IC50) | item: CN1C(=O)N(c2ncccn2)C[C@H]1C(=O)NCc1ccc(Cl)cc1Cl
Reply: 0.80

Task item: Dear colleague, I am looking for the recorded log10(IC50) of the following compound: CC(C)N1[C@H](C(=O)NCc2ccc(F)c(F)c2F)CCS1(=O)=O
Reply: 2.70

Task item: Form field: reported log10(IC50) of Cc1c(Cl)cccc1CNC(=O)[C@@H]1CCCS(=O)(=O)N1C(C)C
Reply: 2.80

Task item: I am curious: what log10(IC50) value has been reported for O=C(c1ccc(Cl)cc1Cl)N1CCn2c(nc(C(F)(F)F)c2-c2ccc(F)cc2)C1 ?
Reply: 2.20
